Assay: VP16 counterscreen qHTS for inhibitors of ROR gamma transcriptional activity;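 further: Gal4-VP16 expression switched on by copper sulfate through the metallothionein promoter; nearly all actives have a fitted effect of over 50% in size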
Conditions: Drosophila S2 Gal4-VP16 UAS-luciferase, luminescence, 20 h; series mostly up to 53.6 µM
Experimental: NIH Molecular Libraries Probe Production Network [MLPCN] NIH Chemical Genomics Center [NCGC] Assay Provider: Dan Littman, New York University […] For screening, 600 cells in 4 uL/well were dispensed into white solid 1536-well plates (Grenier) using a solenoid-based dispenser. […] After addition of 1.5 uL Photinus luciferase detection reagent, the plates were incubated 10 min at ambient temperature and then read by a ViewLux (Perkin Elmer) to detect luminescence.
The campaign covered roughly 310,000 compounds. About 11,000 (3.5%) were called active. Roughly 8% stayed inconclusive and do not appear here. For the sample, actives were picked, then their nearest neighbours and some compounds at random.
Assay Endpoint: outcome

Known outcome results, listed for orientation:
CC(=O)c1c(C)oc2ccc(NS(=O)(=O)c3ccccc3)cc12 ... inactive
O=S(=O)(NC1CCCCC1N1CCN(c2ccccc2F)CC1)c1ccccc1 (stereo not given) ... inactive
OC(COc1ccc(Br)cc1)CN1CCCC1 (stereo not given) ... inactive
CC1CC(C)CN(CCOc2cccc3ccccc23)C1 (stereo not given) ... inactive

// next entry
Asked: If you can, please state the reported outcome value of O=C(/C=C/c1cccc([N+](=O)[O-])c1)N1CCN(Cc2ccccc2)CC1 .
Given back: inactive
